Molecular target: UniProt:P08235
Sequence (P08235 whole entry): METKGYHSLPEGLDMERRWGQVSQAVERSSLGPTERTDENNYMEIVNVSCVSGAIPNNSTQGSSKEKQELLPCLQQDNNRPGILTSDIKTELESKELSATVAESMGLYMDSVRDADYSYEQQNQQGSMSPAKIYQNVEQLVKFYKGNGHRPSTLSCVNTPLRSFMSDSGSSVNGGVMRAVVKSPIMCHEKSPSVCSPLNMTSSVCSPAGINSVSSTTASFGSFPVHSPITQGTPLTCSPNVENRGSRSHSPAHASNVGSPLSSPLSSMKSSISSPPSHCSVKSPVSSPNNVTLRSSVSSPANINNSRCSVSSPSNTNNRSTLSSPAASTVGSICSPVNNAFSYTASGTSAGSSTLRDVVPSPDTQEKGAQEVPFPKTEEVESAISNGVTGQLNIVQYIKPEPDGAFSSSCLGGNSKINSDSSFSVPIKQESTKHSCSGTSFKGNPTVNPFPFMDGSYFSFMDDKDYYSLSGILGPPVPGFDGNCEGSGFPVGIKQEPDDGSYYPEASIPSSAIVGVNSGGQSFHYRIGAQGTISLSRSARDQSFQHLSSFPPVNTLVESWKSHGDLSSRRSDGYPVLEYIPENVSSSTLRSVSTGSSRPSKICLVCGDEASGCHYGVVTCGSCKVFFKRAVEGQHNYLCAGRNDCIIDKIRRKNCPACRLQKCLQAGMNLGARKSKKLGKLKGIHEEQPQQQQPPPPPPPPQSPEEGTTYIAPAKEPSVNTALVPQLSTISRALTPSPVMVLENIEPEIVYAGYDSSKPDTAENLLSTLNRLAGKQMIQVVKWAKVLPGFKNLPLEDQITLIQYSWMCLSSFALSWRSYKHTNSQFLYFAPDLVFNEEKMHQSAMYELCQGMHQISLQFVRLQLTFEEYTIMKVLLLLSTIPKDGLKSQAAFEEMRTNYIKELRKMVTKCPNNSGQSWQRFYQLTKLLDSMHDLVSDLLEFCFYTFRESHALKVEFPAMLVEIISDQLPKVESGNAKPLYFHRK
pIC50: −log10 of the molar value.
I would appreciate it if you labelled entries yes (1) when pIC50 is 7 or higher, otherwise no (0).

[
  {
    "molecule": "N#Cc1ccc(N2N=C(c3ccc(C(=O)O)cc3)CC2c2ccc(F)cc2)c(Cl)c1 (racemic)",
    "label-class": "no (0)"
  },
  {
    "molecule": "N#Cc1ccc(N2N=C(c3ccc(C(=O)O)c(Cl)c3)C[C@@H]2C2CCCC2)cc1Cl",
    "label-class": "yes (1)"
  },
  {
    "molecule": "N#Cc1ccc(N2N=C(c3ccc(C(=O)O)cc3)CC2c2ccc(F)cc2)c(F)c1 (racemic)",
    "label-class": "no (0)"
  },
  {
    "molecule": "O=[N+]([O-])c1ccc(N2N=C(c3ccc(O)cc3)CC2c2ccc(F)cc2)cc1 (racemic)",
    "label-class": "no (0)"
  },
  {
    "molecule": "N#Cc1ccc(N2N=C3c4ccc(C(=O)O)cc4CC[C@@H]3[C@@H]2C2CCCO2)cc1Cl (mixture of isomers)",
    "label-class": "no (0)"
  },
  {
    "molecule": "N#Cc1ccc(N2N=C(c3ccc(C(=O)O)cc3)CC2c2ccc(F)cc2)cc1 (racemic)",
    "label-class": "no (0)"
  },
  {
    "molecule": "N#Cc1ccc(N2N=C(c3ccc(C(=O)O)cc3)C[C@@H]2c2ccc(F)cc2)cc1Cl",
    "label-class": "yes (1)"
  },
  {
    "molecule": "O=C(O)c1ccc(C2=NN(c3ccc(C(=O)O)cc3)C(c3ccc(F)cc3)C2)cc1 (racemic)",
    "label-class": "no (0)"
  },
  {
    "molecule": "N#Cc1ccc(N2N=C3c4ccc(C(=O)O)cc4CC[C@@H]3[C@@H]2C2CC=CC2)cc1Cl (racemic)",
    "label-class": "yes (1)"
  },
  {
    "molecule": "N#Cc1ccc(N2N=C(c3ccc(C(=O)O)cc3)CC2c2ccc(F)cc2)cc1F (racemic)",
    "label-class": "no (0)"
  },
  {
    "molecule": "CCOC(=O)c1ccc(N2N=C(c3ccc(C(=O)O)cc3)CC2c2ccc(F)cc2)cc1 (racemic)",
    "label-class": "no (0)"
  },
  {
    "molecule": "N#Cc1ccc(N2N=C(c3ccc(C(=O)O)cc3)C[C@@H]2C2CCCC2)cc1Cl",
    "label-class": "yes (1)"
  },
  {
    "molecule": "N#Cc1ccc(N2N=C(c3ccc(C(=O)O)cc3)CC2C2CCCCC2)cc1 (racemic)",
    "label-class": "no (0)"
  },
  {
    "molecule": "N#Cc1ccc(N2N=C(c3ccc4[nH]c(=O)oc4c3)CC2c2ccc(C(=O)O)cc2)cc1 (racemic)",
    "label-class": "no (0)"
  },
  {
    "molecule": "N#Cc1ccc(N2N=C3c4ccc(C(=O)O)cc4C[C@@H]3[C@@H]2c2ccc(F)cc2)cc1 (racemic)",
    "label-class": "no (0)"
  },
  {
    "molecule": "N#Cc1ccc(N2N=C3c4ccc(C(=O)O)cc4CC[C@@H]3[C@@H]2C2CCCC2)cc1OCc1ccccc1 (racemic)",
    "label-class": "no (0)"
  },
  {
    "molecule": "CC(C)CC1CC(c2ccc(C(=O)O)cc2)=NN1c1ccc(C#N)cc1 (racemic)",
    "label-class": "no (0)"
  },
  {
    "molecule": "Cc1cc(N2N=C3c4ccc(C(=O)O)cc4CO[C@@H]3[C@@H]2C2CCCC2)ccc1C#N",
    "label-class": "yes (1)"
  },
  {
    "molecule": "N#Cc1ccc(N2N=C3c4ccc(C(=O)O)cc4CC[C@H]3[C@H]2c2ccc(F)cc2)cc1Cl (racemic)",
    "label-class": "no (0)"
  },
  {
    "molecule": "N#Cc1ccc(N2N=C(c3ccc(C(=O)O)cc3)CC2c2cccnc2)cc1 (racemic)",
    "label-class": "no (0)"
  },
  {
    "molecule": "N#Cc1ccc(N2N=C(c3ccc(C(=O)O)cc3)CC2c2cccc(F)c2)cc1 (racemic)",
    "label-class": "no (0)"
  },
  {
    "molecule": "O=C(O)c1ccc(N2N=C(c3ccc4[nH]c(=O)oc4c3)CC2c2ccc(F)cc2)cc1 (racemic)",
    "label-class": "no (0)"
  },
  {
    "molecule": "O=C(O)c1ccc(C2=NN(c3ccccc3)C(c3ccc(F)cc3)C2)cc1 (racemic)",
    "label-class": "no (0)"
  },
  {
    "molecule": "N#Cc1ccc(N2N=C(c3ccc(C(=O)O)cc3)CC2c2ccco2)cc1 (racemic)",
    "label-class": "no (0)"
  },
  {
    "molecule": "Cc1cc(N2N=C3c4ccc(C(=O)O)cc4CC[C@@H]3[C@@H]2C2CCCC2)ccc1C#N (racemic)",
    "label-class": "yes (1)"
  },
  {
    "molecule": "N#Cc1ccc(N2N=C(c3ccc4[nH]c(=O)oc4c3)CC2c2ccc(F)cc2)cc1 (racemic)",
    "label-class": "yes (1)"
  },
  {
    "molecule": "N#Cc1ccc(N2N=C(c3ccc(C(=O)O)cc3)CC2Cc2ccccc2)cc1 (racemic)",
    "label-class": "no (0)"
  },
  {
    "molecule": "N#Cc1ccc(N2N=C(c3ccc4[nH]c(=O)oc4c3)C[C@H]2c2ccc(F)cc2)cc1",
    "label-class": "no (0)"
  }
]

====

Entries with their measured IC50, system Voltage-gated inwardly rectifying potassium channel KCNH2 (Homo sapiens):

[
  {
    "compound": "O=C(O)c1ccc(N2N=C(c3ccc4[nH]c(=O)oc4c3)CC2c2ccc(F)cc2)cc1 (racemic)",
    "censoring-operator": ">",
    "IC50 (nM)": 30000
  },
  {
    "compound": "CN(C)CCN(C)C(=O)c1ccc(C2=NN(c3ccc(C#N)cc3)C(c3ccc(F)cc3)C2)cc1 (racemic)",
    "censoring-operator": "=",
    "IC50 (nM)": 170
  },
  {
    "compound": "N#Cc1ccc(N2N=C(c3ccc4[nH]c(=O)oc4c3)C[C@@H]2c2ccc(F)cc2)cc1",
    "censoring-operator": "=",
    "IC50 (nM)": 29
  },
  {
    "compound": "N#Cc1ccc(N2N=C(c3ccc(C(=O)O)cc3)CC2c2ccc(F)cc2)cc1 (racemic)",
    "censoring-operator": ">",
    "IC50 (nM)": 30000
  },
  {
    "compound": "N#Cc1ccc(N2N=C(c3ccc4[nH]c(=O)oc4c3)CC2c2ccc(C(=O)O)cc2)cc1 (racemic)",
    "censoring-operator": ">",
    "IC50 (nM)": 30000
  }
]

Values were extracted from ChEMBL document CHEMBL1212897.
